Every entry's value here was drawn from patent US20110287432A1.

Test system: apyrase
Assay: Enzyme kinetics of apyrase across multiple nucleotides (Michaelis-Menten)
Assay type: biochemical
Settings: Michaelis-Menten calculation; dTTP, α-thio-dATP, dCTP, dGTP at 40.3, 166.1, 16.3, 19.7 μM
Observed Property: VApy-dNTP (estimated apyrase activity) (μM/10 min)

See these solved cases before continuing.
[
  {
    "Compound": "Nc1ccn([C@H]2C[C@H](O)[C@@H](COP(=O)(O)OP(=O)(O)OP(=O)(O)O)O2)c(=O)n1",
    "VApy-dNTP (estimated apyrase activity), μM/10 min": 31.7
  },
  {
    "Compound": "Nc1ncnc2c1ncn2[C@H]1C[C@H](O)[C@@H](COP(O)(=S)OP(=O)(O)OP(=O)(O)O)O1 (stereo partly shown)",
    "VApy-dNTP (estimated apyrase activity), μM/10 min": 137.5
  }
]

P: Nc1nc2c(ncn2[C@H]2C[C@H](O)[C@@H](COP(=O)(O)OP(=O)(O)OP(=O)(O)O)O2)c(=O)[nH]1
Q: Cc1cn([C@H]2C[C@H](O)[C@@H](COP(=O)(O)OP(=O)(O)OP(=O)(O)O)O2)c(=O)[nH]c1=O
Parameter metric = VApy-dNTP (estimated apyrase activity). Return the lower-valued option from P and Q . # reply format: chosen label
P

====

Test system: apyrase
Experiment: Enzyme kinetics of apyrase across multiple nucleotides (Michaelis-Menten)
Type: biochemical
Conditions: maximum rate of apyrase for the nucleotide species
Observed Property: Vmax (μM/10 min)

See these solved cases before continuing.
[
  {
    "Molecule": "Nc1ncnc2c1ncn2[C@H]1C[C@H](O)[C@@H](COP(O)(=S)OP(=O)(O)OP(=O)(O)O)O1 (stereo partly shown)",
    "Observed Property": "Vmax",
    "Display Unit": "μM/10 min",
    "Quantitative Readout": 232.6
  },
  {
    "Molecule": "Nc1ccn([C@H]2C[C@H](O)[C@@H](COP(=O)(O)OP(=O)(O)OP(=O)(O)O)O2)c(=O)n1",
    "Observed Property": "Vmax",
    "Display Unit": "μM/10 min",
    "Quantitative Readout": 250.0
  }
]

P: Cc1cn([C@H]2C[C@H](O)[C@@H](COP(=O)(O)OP(=O)(O)OP(=O)(O)O)O2)c(=O)[nH]c1=O
Q: Nc1nc2c(ncn2[C@H]2C[C@H](O)[C@@H](COP(=O)(O)OP(=O)(O)OP(=O)(O)O)O2)c(=O)[nH]1
Parameter metric = Vmax. Return the lower-valued option from P and Q . # reply format: chosen label
Q
(Q: 47.4 μM/10 min, P: 294.1 μM/10 min)

====

Tested on: polymerase and apyrase
Test: Sequencing of C. jejuni shotgun libraries, nucleotide-specific CAFIE fit of raw reads
Format: biochemical
Details: Run 2; relative concentration TA 140%, CG 140%; average over 200 reads
Observed Property: average carry forward
Give the figure by itself; no unit, no explanation.

[
  {
    "Compound": "Nc1nc2c(ncn2[C@H]2C[C@H](O)[C@@H](COP(=O)(O)OP(=O)(O)OP(=O)(O)O)O2)c(=O)[nH]1",
    "Target Or System": "polymerase and apyrase",
    "average carry forward": 0.0075
  },
  {
    "Compound": "Cc1cn([C@H]2C[C@H](O)[C@@H](COP(=O)(O)OP(=O)(O)OP(=O)(O)O)O2)c(=O)[nH]c1=O",
    "Target Or System": "polymerase and apyrase",
    "average carry forward": 0.0013
  }
]

Form: Entry = Nc1ccn([C@H]2C[C@H](O)[C@@H](COP(=O)(O)OP(=O)(O)OP(=O)(O)O)O2)c(=O)n1 | System = polymerase and apyrase | average carry forward = ____
0.0058

Form: Entry = Nc1ncnc2c1ncn2[C@H]1C[C@H](O)[C@@H](COP(O)(=S)OP(=O)(O)OP(=O)(O)O)O1 (stereo partly shown) | System = polymerase and apyrase | average carry forward = ____
0.0033

====

Test system: apyrase
Test: Enzyme kinetics of apyrase across multiple nucleotides (Michaelis-Menten)
Format: biochemical
Details: normalized to the value of dCTP
Observed Property: Apyrase activity ratio

[
  {
    "Compound": "Nc1ncnc2c1ncn2[C@H]1C[C@H](O)[C@@H](COP(O)(=S)OP(=O)(O)OP(=O)(O)O)O1 (stereo partly drawn) [α-thio-dATP]",
    "Apyrase activity ratio": 4.3
  }
]

P: Nc1ccn([C@H]2C[C@H](O)[C@@H](COP(=O)(O)OP(=O)(O)OP(=O)(O)O)O2)c(=O)n1 [dCTP]
Q: Cc1cn([C@H]2C[C@H](O)[C@@H](COP(=O)(O)OP(=O)(O)OP(=O)(O)O)O2)c(=O)[nH]c1=O [dTTP]
R: Nc1nc2c(ncn2[C@H]2C[C@H](O)[C@@H](COP(=O)(O)OP(=O)(O)OP(=O)(O)O)O2)c(=O)[nH]1 [dGTP]
# ascending order, key=Apyrase activity ratio In your reply, arrange the labels in the requested order.
P, R, Q

====

System: apyrase
Assay: Enzyme kinetics of apyrase across multiple nucleotides (Michaelis-Menten)
Assay type: biochemical
Settings: Michaelis constant of apyrase for the nucleotide species
Excerpt: The nucleotide species specific steady-state apyrase concentration may be computed using what is referred to as the Michaelis-Menten kinetics to mathematically approximate the kinetic characteristics of an enzyme based upon the assumption that simple kinetic conditions exist. The Michaelis-Menten equation uses constant values that vary by nucleotide species and include the Michaelis constant KM and the maximum rate Vmax of enzyme activity in a reaction environment. […]
Observed Property: Km (µM)

See these solved cases before continuing.
[
  {
    "Compound": "Nc1ncnc2c1ncn2[C@H]1C[C@H](O)[C@@H](COP(O)(=S)OP(=O)(O)OP(=O)(O)O)O1 (stereo partly drawn) [α-thio-dATP]",
    "Target Or System": "apyrase",
    "Display Unit": "µM",
    "Quantitative Readout": 115
  },
  {
    "Compound": "Nc1ccn([C@H]2C[C@H](O)[C@@H](COP(=O)(O)OP(=O)(O)OP(=O)(O)O)O2)c(=O)n1 [dCTP]",
    "Target Or System": "apyrase",
    "Display Unit": "µM",
    "Quantitative Readout": 76.5
  }
]

a: Cc1cn([C@H]2C[C@H](O)[C@@H](COP(=O)(O)OP(=O)(O)OP(=O)(O)O)O2)c(=O)[nH]c1=O [dTTP]
b: Nc1nc2c(ncn2[C@H]2C[C@H](O)[C@@H](COP(=O)(O)OP(=O)(O)OP(=O)(O)O)O2)c(=O)[nH]1 [dGTP]
Of the two listed items, which has the higher Km? First: a Second: b # reply format: chosen label
a
